assay: Plasma and hepatic concentration of KTZ after a single oral dose; format: in vivo, rats; conditions: rat, plasma, po, 80 mg/kg
MEASURED_ATTRIBUTE: concentration at 1 h

> print(dat)
                                   molecule    measured.attribute  observed.measurement
1  CC(=O)N1CCN(c2ccc(OCC3COC(Cn4ccnc4)(c4ccc(Cl)cc4Cl)O3)cc2)CC1 (stereo not shown)  concentration at 1 h               49.6 µM

Each recorded value in this set is attributed to paper PMC8520055.
